Hey, just so you know, these numbers are from patent US20260242735A1.

test-target: human CD33 L134F (human, UniProt P20138 18-364)
Sequence (P20138 18-364 L134F limits assumed): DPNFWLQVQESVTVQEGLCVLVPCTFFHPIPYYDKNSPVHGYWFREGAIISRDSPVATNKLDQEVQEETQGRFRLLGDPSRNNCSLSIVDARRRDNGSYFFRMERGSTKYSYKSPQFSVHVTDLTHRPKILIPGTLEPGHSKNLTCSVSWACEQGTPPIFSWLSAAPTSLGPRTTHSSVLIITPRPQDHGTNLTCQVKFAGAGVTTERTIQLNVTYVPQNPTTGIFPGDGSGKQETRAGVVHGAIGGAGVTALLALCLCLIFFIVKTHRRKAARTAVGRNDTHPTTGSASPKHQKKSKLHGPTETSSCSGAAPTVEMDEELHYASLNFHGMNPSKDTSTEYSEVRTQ
experiment-description: flow cytometry, HEK293-T, IgG;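 also: CD33 point mutants transiently expressed, antibody binding measured by fluorescence in duplicate, background subtracted and scaled to binding on wild-type CD33 as 100%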
measure: Mean % WT Binding (% WT binding)
Entry rule: numbers only, all in % WT binding.

Some solved cases for reference:
Refmab #4 (antibody, human IgG1, V domains shown, tested in IgG format) VH: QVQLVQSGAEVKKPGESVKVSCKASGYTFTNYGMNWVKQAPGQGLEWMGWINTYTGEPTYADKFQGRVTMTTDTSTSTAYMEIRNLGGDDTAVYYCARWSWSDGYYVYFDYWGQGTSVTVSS VL: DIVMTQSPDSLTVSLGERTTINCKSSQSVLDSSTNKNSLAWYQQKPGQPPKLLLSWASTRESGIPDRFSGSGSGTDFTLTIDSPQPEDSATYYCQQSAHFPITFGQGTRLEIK; 90.6
Refmab #3 (antibody, human IgG1, V domains shown, tested in IgG format) VH: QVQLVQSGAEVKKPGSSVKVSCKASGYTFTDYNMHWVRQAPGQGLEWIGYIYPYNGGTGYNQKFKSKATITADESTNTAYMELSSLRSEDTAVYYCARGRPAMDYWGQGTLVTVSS VL: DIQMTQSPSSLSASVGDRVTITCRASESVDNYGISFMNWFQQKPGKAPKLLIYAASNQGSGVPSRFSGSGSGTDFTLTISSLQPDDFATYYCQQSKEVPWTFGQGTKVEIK; 104
Refmab #2 (antibody, human IgG1, V domains shown, tested in IgG format) VH: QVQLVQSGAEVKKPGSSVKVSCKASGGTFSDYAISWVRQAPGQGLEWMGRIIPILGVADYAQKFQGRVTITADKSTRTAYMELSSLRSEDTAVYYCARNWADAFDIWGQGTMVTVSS VL: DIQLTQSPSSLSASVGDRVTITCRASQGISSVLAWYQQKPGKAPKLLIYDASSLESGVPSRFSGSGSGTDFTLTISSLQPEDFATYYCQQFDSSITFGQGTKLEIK; 106

Next item in the queue.
Quick one: Mean % WT Binding of Refmab #1 (antibody, human IgG1, V domains shown, tested in IgG format; also called hP67.6) VH: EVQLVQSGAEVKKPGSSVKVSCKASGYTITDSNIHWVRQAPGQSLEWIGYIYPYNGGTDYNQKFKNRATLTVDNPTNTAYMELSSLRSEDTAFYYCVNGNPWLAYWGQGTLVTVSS VL: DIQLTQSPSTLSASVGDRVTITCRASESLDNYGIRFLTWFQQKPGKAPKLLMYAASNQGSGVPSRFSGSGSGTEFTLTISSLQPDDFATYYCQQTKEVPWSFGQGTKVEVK ?
92.5
